- Test system: LOX IMVI
- assay: NCI tumour cell line growth inhibition, 48 h
Calls of active or inactive are those of the source. Cut-off read from the data, not from the text of the source: active = GI50 up to about 1.1 µM and inactive = higher.
quantity-kind: GI50

// worked examples, GI50 included
In [3]: df
Out[3]:
                                   molecule  quantity_kind       endpoint_value
0  COc1cc2c(cc1OC)C(=O)N(c1ccc(OCCN3CCCC3)cc1)C2=O           GI50  > 100 µM (inactive)
1  O=C(Nc1cccc(O)c1)C(=O)C(C(=O)c1ccc(Cl)c(Cl)c1)C1OC(=O)c2ccccc21 (stereo not given)           GI50   17.3 µM (inactive)
2  CCc1ccccc1NC(=O)C1=C(C)NC(C)=C(C(=O)Nc2ccccc2CC)C1c1cccc([N+](=O)[O-])c1           GI50   87.9 µM (inactive)
3  C=C1CC(CCCl)(c2ccccc2)OC1=O (stereo not given)           GI50   30.5 µM (inactive)

Sample CS(=O)(=O)C(C#N)c1nc2ccccc2nc1Cl (stereo not given) — what was its GI50?
> 100 µM (inactive)
